All values here come from patent US20150118222A1.

- Test system: A20
- measurementNotes: IC50 of ibrutinib in A20 mouse lymphoma cells (FIG. 19B)
- Type: cell-based
- settings: read-out: IC50 of ibrutinib, FIG. 19 Panel B
pIC50: −log10 of the molar value.
propertyName: pIC50

In: Under A20, report pIC50 for `C=CC(=O)N1CCC[C@@H](n2nc(-c3ccc(Oc4ccccc4)cc3)c3c(N)ncnc32)C1`
Out: < 5.00
